Test system: KRAS PDC multicell spheroid viability
assay notes: Anticancer human tumor 521955-158-R6-J3-PDC patient-derived pancreatic carcinoma cell line growth inhibition [KRAS2]
condition context: curve of first compound; second compound 0.1 µM
pIC50: −log10 of the molar value.
value type: pIC50

In the examples that follow, each entry is paired with its recorded pIC50.
>>> result("O=C(c1cc(Cc2n[nH]c(=O)c3ccccc23)ccc1F)N1CCN(C(=O)C2CC2)CC1 + COc1cc2nc(C)nc(NC(C)c3cc(N)cc(C(F)(F)F)c3)c2cc1OC1CCOC1")
"< 5.00"
>>> result("CC1(C)CCC(CN2CCN(c3ccc(C(=O)NS(=O)(=O)c4ccc(NCC5CCOCC5)c([N+](=O)[O-])c4)c(Oc4cnc5[nH]ccc5c4)c3)CC2)=C(c2ccc(Cl)cc2)C1 + CC1OCC2(CCN(c3cnc(Sc4ccnc(N)c4Cl)c(N)n3)CC2)C1N")
5.15
>>> result("CC1COCCN1c1cc(-c2ccnn2C)c2ccnc(-c3ccn[nH]3)c2n1 (stereo not given) + CC1OCC2(CCN(c3cnc(Sc4ccnc(N)c4Cl)c(N)n3)CC2)C1N")
"< 5.50"

Could you tell me pIC50 for each of these molecules? They are listed below.
1. CC(C)n1nc(-c2ccc3oc(N)nc3c2)c2c(N)ncnc21 + CC1OCC2(CCN(c3cnc(Sc4ccnc(N)c4Cl)c(N)n3)CC2)C1N
2. CC(C)n1nc(-c2ccc3oc(N)nc3c2)c2c(N)ncnc21 + CNCc1ccccc1-c1csc(C(C)Nc2nc(C)nc3cc(OC)c(OC)cc23)c1
3. O=C(c1cc(Cc2n[nH]c(=O)c3ccccc23)ccc1F)N1CCN(C(=O)C2CC2)CC1 + C=CC(=O)N1CCN(c2nc(=O)n(-c3c(C)ccnc3C(C)C)c3nc(-c4c(O)cccc4F)c(F)cc23)C(C)C1
4. COc1cc2nccc(Oc3ccc(NC(=O)C4(C(=O)Nc5ccc(F)cc5)CC4)cc3)c2cc1OC + COc1cc2nc(C)nc(NC(C)c3cc(N)cc(C(F)(F)F)c3)c2cc1OC1CCOC1
5. CC(=O)Nc1cccc(-n2c(=O)n(C3CC3)c(=O)c3c(Nc4ccc(I)cc4F)n(C)c(=O)c(C)c32)c1 + CC1OCC2(CCN(c3cnc(Sc4ccnc(N)c4Cl)c(N)n3)CC2)C1N
6. CCN1CCN(Cc2ccc(Nc3ncc(F)c(-c4cc(F)c5nc(C)n(C(C)C)c5c4)n3)nc2)CC1 + CC1OCC2(CCN(c3cnc(Sc4ccnc(N)c4Cl)c(N)n3)CC2)C1N

1: < 7.00; 2: 7.11; 3: < 5.00; 4: < 5.00; 5: 7.72; 6: < 6.00

* * *

Tested on: KRAS PDC multicell spheroid viability
assay notes: Anticancer human tumor 521955-158-R6-J3-PDC cell line growth inhibition [KRAS2];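 note: drug exposure lasted seven days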;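 for viability, T/C: 100% = DMSO vehicle wells and lower means fewer viable cells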
condition context: second compound 3.16 µM; first compound 0.001 µM; stronger effect = lower value
value type: viability, T/C (%)
Give bare numbers, in %.

>>> quantitative_readout("CN(C)C/C=C/C(=O)Nc1cc2c(Nc3ccc(F)c(Cl)c3)ncnc2cc1O[C@H]1CCOC1 + C=CC(=O)N1CCN(c2nc(OCC3CCCN3C)nc3c2CCN(c2cccc4cccc(C)c24)C3)CC1CC#N")
32.9
>>> quantitative_readout("CC(=O)Nc1cccc(-n2c(=O)n(C3CC3)c(=O)c3c(Nc4ccc(I)cc4F)n(C)c(=O)c(C)c32)c1 + C=CC(=O)N1CCN(c2nc(OCC3CCCN3C)nc3c2CCN(c2cccc4cccc(C)c24)C3)CC1CC#N")
24.4
>>> quantitative_readout("CN(C)C/C=C/C(=O)Nc1cc2c(Nc3ccc(F)c(Cl)c3)ncnc2cc1O[C@H]1CCOC1 + COc1cc2nc(C)nc(NC(C)c3cc(N)cc(C(F)(F)F)c3)c2cc1OC1CCOC1")
78.2
>>> quantitative_readout("CC(=O)Nc1cccc(-n2c(=O)n(C3CC3)c(=O)c3c(Nc4ccc(I)cc4F)n(C)c(=O)c(C)c32)c1 + COc1cc2nc(C)nc(NC(C)c3cc(N)cc(C(F)(F)F)c3)c2cc1OC1CCOC1")
76.7
>>> quantitative_readout("CN(C)C/C=C/C(=O)Nc1cc2c(Nc3ccc(F)c(Cl)c3)ncnc2cc1O[C@H]1CCOC1 + CNCc1ccccc1-c1csc(C(C)Nc2nc(C)nc3cc(OC)c(OC)cc23)c1")
106

For each of the compounds below, state viability, T/C.
1. Cn1ncnc1[C@H]1c2n[nH]c(=O)c3cc(F)cc(c23)N[C@@H]1c1ccc(F)cc1 + CC1OCC2(CCN(c3cnc(Sc4ccnc(N)c4Cl)c(N)n3)CC2)C1N
2. CC(C)n1nc(-c2ccc3oc(N)nc3c2)c2c(N)ncnc21 + CC1OCC2(CCN(c3cnc(Sc4ccnc(N)c4Cl)c(N)n3)CC2)C1N

95.6
113

Please state viability, T/C for every compound in the list that follows.
1. CC(C)n1nc(-c2ccc3oc(N)nc3c2)c2c(N)ncnc21 + C=CC(=O)N1CCN(c2nc(=O)n(-c3c(C)ccnc3C(C)C)c3nc(-c4c(O)cccc4F)c(F)cc23)C(C)C1
2. CN(C)C/C=C/C(=O)Nc1cc2c(Nc3ccc(F)c(Cl)c3)ncnc2cc1O[C@H]1CCOC1 + CC1OCC2(CCN(c3cnc(Sc4ccnc(N)c4Cl)c(N)n3)CC2)C1N

1. 93
2. 117

* * *

Tested on: KRAS PDC multicell spheroid viability
assay notes: Anticancer human tumor 521955-158-R6-J3-PDC cell line growth inhibition [KRAS2];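 note: drug exposure lasted seven days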;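 for viability, T/C: 100% = DMSO vehicle wells and lower means fewer viable cells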
condition context: second compound 10 µM; first compound 0.000316 µM; stronger effect = lower value
Task for the reader: assign each of the following compounds its reported viability, T/C.

Consider the following items and state reported viability, T/C for each.
1. Cn1ncnc1[C@H]1c2n[nH]c(=O)c3cc(F)cc(c23)N[C@@H]1c1ccc(F)cc1 + CC1OCC2(CCN(c3cnc(Sc4ccnc(N)c4Cl)c(N)n3)CC2)C1N
2. CC(C)n1nc(-c2ccc3oc(N)nc3c2)c2c(N)ncnc21 + C=CC(=O)N1CCN(c2nc(=O)n(-c3c(C)ccnc3C(C)C)c3nc(-c4c(O)cccc4F)c(F)cc23)C(C)C1
3. Cn1ncnc1[C@H]1c2n[nH]c(=O)c3cc(F)cc(c23)N[C@@H]1c1ccc(F)cc1 + CNCc1ccccc1-c1csc(C(C)Nc2nc(C)nc3cc(OC)c(OC)cc23)c1
4. CN(C)C/C=C/C(=O)Nc1cc2c(Nc3ccc(F)c(Cl)c3)ncnc2cc1O[C@H]1CCOC1 + CC1OCC2(CCN(c3cnc(Sc4ccnc(N)c4Cl)c(N)n3)CC2)C1N
5. Cn1ncnc1[C@H]1c2n[nH]c(=O)c3cc(F)cc(c23)N[C@@H]1c1ccc(F)cc1 + C=CC(=O)N1CCN(c2nc(=O)n(-c3c(C)ccnc3C(C)C)c3nc(-c4c(O)cccc4F)c(F)cc23)C(C)C1

1: 105%; 2: 99%; 3: 0.15%; 4: 110%; 5: 81.8%

* * *

Exercise: for every item that follows, state its recorded viability, T/C.
Test system: KRAS PDC multicell spheroid viability
assay notes: Anticancer human tumor 521955-158-R6-J3-PDC cell line growth inhibition [KRAS2];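 note: drug exposure lasted seven days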;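 for viability, T/C: 100% = DMSO vehicle wells and lower means fewer viable cells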
condition context: second compound 3.16 µM; first compound 10 µM; stronger effect = lower value
Numbers only, in %.

// solved cases for viability, T/C follow
>>> quantitative_readout("O=C(c1cc(Cc2n[nH]c(=O)c3ccccc23)ccc1F)N1CCN(C(=O)C2CC2)CC1 + CC1OCC2(CCN(c3cnc(Sc4ccnc(N)c4Cl)c(N)n3)CC2)C1N")
72.1
>>> quantitative_readout("COc1cc2nccc(Oc3ccc(NC(=O)C4(C(=O)Nc5ccc(F)cc5)CC4)cc3)c2cc1OC + CNCc1ccccc1-c1csc(C(C)Nc2nc(C)nc3cc(OC)c(OC)cc23)c1")
0.24

Consider now this further compound.
Consider the compound CCNC(=O)CC1N=C(c2ccc(Cl)cc2)c2cc(OC)ccc2-n2c(C)nnc21 (stereo not drawn) + C=CC(=O)N1CCN(c2nc(=O)n(-c3c(C)ccnc3C(C)C)c3nc(-c4c(O)cccc4F)c(F)cc23)C(C)C1 and give its measured viability, T/C. 45.3

* * *

Tested on: KRAS PDC multicell spheroid viability
assay notes: Anticancer human tumor 521955-158-R6-J3-PDC cell line growth inhibition [KRAS2];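 note: drug exposure lasted seven days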;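 for viability, T/C: 100% = DMSO vehicle wells and lower means fewer viable cells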
condition context: second compound 10 µM; first compound 0.01 µM; stronger effect = lower value
value type: viability, T/C (%)
Numbers only, in %.

>>> quantitative_readout("CC(C)n1nc(-c2ccc3oc(N)nc3c2)c2c(N)ncnc21 + C=CC(=O)N1CCN(c2nc(=O)n(-c3c(C)ccnc3C(C)C)c3nc(-c4c(O)cccc4F)c(F)cc23)C(C)C1")
77.2
>>> quantitative_readout("CC(=O)Nc1cccc(-n2c(=O)n(C3CC3)c(=O)c3c(Nc4ccc(I)cc4F)n(C)c(=O)c(C)c32)c1 + CC1OCC2(CCN(c3cnc(Sc4ccnc(N)c4Cl)c(N)n3)CC2)C1N")
30.3

I would be grateful if you could provide viability, T/C for each of the following entries.
1. CC(=O)OC12COC1CC(O)C1(C)C(=O)C(O)C3=C(C)C(OC(=O)C(O)C(NC(=O)OC(C)(C)C)c4ccccc4)CC(O)(C(OC(=O)c4ccccc4)C21)C3(C)C (stereo not given) + CC1OCC2(CCN(c3cnc(Sc4ccnc(N)c4Cl)c(N)n3)CC2)C1N
2. CC1COCCN1c1cc(-c2ccnn2C)c2ccnc(-c3ccn[nH]3)c2n1 (stereo not given) + C=CC(=O)N1CCN(c2nc(=O)n(-c3c(C)ccnc3C(C)C)c3nc(-c4c(O)cccc4F)c(F)cc23)C(C)C1
3. Cn1ncnc1[C@H]1c2n[nH]c(=O)c3cc(F)cc(c23)N[C@@H]1c1ccc(F)cc1 + C=CC(=O)N1CCN(c2nc(=O)n(-c3c(C)ccnc3C(C)C)c3nc(-c4c(O)cccc4F)c(F)cc23)C(C)C1

[99.7, 77.6, 83.2]
